test-target: Phosphatidylinositol 4,5-bisphosphate 3-kinase catalytic subunit gamma isoform (Homo sapiens, UniProt P48736)
Sequence (P48736 whole entry, canonical isoform): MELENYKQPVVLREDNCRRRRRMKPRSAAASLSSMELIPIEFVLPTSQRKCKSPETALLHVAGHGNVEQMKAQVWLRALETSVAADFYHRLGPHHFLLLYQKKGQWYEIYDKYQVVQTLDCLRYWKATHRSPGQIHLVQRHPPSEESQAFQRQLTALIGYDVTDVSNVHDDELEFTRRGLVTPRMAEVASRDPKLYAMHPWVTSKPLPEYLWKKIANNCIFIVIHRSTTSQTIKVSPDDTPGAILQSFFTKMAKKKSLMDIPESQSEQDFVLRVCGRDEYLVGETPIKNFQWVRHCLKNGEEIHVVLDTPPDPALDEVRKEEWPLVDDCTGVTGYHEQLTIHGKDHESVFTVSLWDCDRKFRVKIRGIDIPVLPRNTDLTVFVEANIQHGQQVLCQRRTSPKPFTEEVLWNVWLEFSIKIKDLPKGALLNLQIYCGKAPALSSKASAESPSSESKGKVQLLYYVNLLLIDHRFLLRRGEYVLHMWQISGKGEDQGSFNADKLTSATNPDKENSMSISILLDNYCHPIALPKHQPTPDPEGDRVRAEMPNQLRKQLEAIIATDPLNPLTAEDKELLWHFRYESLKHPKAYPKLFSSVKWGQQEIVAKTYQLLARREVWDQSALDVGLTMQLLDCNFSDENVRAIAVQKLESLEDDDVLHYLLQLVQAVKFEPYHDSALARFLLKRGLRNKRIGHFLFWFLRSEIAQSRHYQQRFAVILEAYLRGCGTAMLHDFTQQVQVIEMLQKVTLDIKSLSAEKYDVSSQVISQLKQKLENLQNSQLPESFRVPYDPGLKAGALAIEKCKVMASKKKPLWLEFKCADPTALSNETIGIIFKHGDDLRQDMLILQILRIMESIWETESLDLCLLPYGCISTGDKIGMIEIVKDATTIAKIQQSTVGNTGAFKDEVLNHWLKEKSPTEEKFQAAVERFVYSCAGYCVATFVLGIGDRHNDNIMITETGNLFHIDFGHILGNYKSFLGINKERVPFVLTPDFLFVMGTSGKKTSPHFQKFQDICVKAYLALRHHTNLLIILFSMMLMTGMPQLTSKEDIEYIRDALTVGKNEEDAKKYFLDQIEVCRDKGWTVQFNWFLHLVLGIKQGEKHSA
measurement-protocol: Inhibition of PI3Kgamma (unknown origin) by ADP-Glo kinase assay
pIC50: −log10 of the molar value.
reported-property: pIC50

- smiles-representation: "CCc1cc(CNc2cc(Cl)nn3c(-c4ccc(OC)c(S(=O)(=O)NCCO)c4)c(C)nc23)ccn1"
  reported-property: "pIC50"
  test-result: "> 5.00"

====

test-target: Phosphatidylinositol 4-kinase beta (Homo sapiens, UniProt Q9UBF8)
Sequence (Q9UBF8 whole entry): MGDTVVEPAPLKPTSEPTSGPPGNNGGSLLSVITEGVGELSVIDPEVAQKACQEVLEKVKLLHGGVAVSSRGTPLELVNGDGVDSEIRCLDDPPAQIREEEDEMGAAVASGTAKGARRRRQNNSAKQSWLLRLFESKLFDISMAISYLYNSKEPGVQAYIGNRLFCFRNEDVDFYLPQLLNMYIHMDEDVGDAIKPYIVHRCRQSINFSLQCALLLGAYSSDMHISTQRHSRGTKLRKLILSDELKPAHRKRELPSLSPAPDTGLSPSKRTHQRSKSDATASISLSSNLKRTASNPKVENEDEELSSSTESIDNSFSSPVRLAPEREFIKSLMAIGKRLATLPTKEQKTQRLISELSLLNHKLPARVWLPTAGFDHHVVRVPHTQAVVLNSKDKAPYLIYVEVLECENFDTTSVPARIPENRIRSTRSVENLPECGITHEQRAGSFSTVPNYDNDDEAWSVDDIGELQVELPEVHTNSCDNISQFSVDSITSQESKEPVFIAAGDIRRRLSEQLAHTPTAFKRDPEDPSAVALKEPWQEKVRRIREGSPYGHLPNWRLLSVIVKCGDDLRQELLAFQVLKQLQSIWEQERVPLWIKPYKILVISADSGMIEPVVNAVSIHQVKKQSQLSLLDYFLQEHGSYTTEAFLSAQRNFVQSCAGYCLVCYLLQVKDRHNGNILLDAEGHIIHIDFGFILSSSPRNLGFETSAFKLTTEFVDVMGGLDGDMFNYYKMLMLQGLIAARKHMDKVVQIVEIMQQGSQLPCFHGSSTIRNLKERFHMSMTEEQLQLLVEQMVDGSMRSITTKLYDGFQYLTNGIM

- smiles-representation: "CC(=O)NCCNc1cc(Cl)nn2c(-c3cccc(S(=O)(=O)N(C)C)c3)c(C)nc12"
  IC50 / nM: 54
